target: UniProtKB P23743; test: biochemical; conditions: detergent/lipid micelle substrate; read-out: DGKα IC50
Sequence (P23743 other isoform, or with tags, fused parts or gaps): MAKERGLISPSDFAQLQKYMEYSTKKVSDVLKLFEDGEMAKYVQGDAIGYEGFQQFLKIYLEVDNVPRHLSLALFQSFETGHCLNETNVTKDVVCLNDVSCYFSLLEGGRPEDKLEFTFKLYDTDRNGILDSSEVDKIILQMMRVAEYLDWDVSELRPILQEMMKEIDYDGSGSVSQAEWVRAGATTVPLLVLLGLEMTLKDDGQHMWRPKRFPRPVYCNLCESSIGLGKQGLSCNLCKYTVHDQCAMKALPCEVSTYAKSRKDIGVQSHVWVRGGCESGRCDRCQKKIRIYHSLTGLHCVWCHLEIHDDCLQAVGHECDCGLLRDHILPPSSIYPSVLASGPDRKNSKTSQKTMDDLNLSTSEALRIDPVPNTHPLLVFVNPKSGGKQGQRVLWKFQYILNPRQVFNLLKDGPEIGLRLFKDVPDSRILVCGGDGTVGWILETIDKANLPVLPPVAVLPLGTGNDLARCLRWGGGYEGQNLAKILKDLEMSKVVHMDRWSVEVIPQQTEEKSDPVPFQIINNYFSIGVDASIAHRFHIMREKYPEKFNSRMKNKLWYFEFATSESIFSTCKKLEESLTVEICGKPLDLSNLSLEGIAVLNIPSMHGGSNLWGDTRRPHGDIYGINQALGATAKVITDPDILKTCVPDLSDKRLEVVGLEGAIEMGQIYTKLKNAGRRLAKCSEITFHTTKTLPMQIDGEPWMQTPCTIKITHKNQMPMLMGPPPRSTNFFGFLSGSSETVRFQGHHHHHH
Note to self: IC50 under 2 µM means yes, ties and anything higher get no.

See these solved cases before continuing.
State whether 2 µM exceeds IC50 recorded for Cc1ccc2c(n1)c(N1CCN(Cc3cc(Cl)ccc3O)CC1)c(C#N)c(=O)n2C [Example 296] .
yes

State whether 2 µM exceeds IC50 recorded for Cc1ccccc1CN1CCN(c2c(C#N)c(=O)n(C)c3ccc(Cl)nc23)CC1 [Example 346] .
no

State whether 2 µM exceeds IC50 recorded for Cc1ccc2c(n1)c(N1CCN(C(c3ccc(F)cc3)c3ccc(F)cc3)CC1)c(C(F)(F)F)c(=O)n2C [Example 232] .
no

Continuing:
State whether 2 µM exceeds IC50 recorded for Cn1c(=O)c(C#N)c(N2CCN(Cc3ccccc3NC(=O)c3ccccc3)CC2)c2nc(Br)ccc21 [Example 213] .
no

State whether 2 µM exceeds IC50 recorded for Cn1c(=O)c(C#N)c(N2CCN(Cc3c(O)cccc3F)CC2)c2nc(Cl)ccc21 [Example 280] .
yes

State whether 2 µM exceeds IC50 recorded for Cn1c(=O)c([N+](=O)[O-])c(N2CCN(C(c3ccc(F)cc3)c3ccc(F)cc3)CC2)c2nc(Br)ccc21 [Example 53] .
yes

State whether 2 µM exceeds IC50 recorded for Cn1c(=O)c(C#N)c(N2CCN(C(c3ccc(F)cc3)c3ccc(F)cc3O)CC2)c2nc(Cl)ccc21 (stereo not shown) [Example 222] .
yes
